- Target Or Test System: Replicase polyprotein 1ab (Severe acute respiratory syndrome coronavirus 2, UniProt P0DTD1)
pIC50: −log10 of the molar value.
Rule: pIC50 of 6 or more gives True; anything lower gives False.

INSERT INTO measurements (structure_smiles_string, answer_label) VALUES
  ('CCCC[C@H](NC(=O)/C=C/c1ccccc1)C(=O)N[C@H](C=O)C[C@@H]1CCCNC1=O', 'True'),
  ('CCCC[C@H](NC(=O)/C=C/c1ccccc1)C(=O)N[C@H](C=O)C[C@@H]1CCNC1=O', 'True'),
  ('O=C[C@H](C[C@@H]1CCCNC1=O)NC(=O)[C@@H](NC(=O)/C=C/c1ccccc1)c1ccccc1', 'False'),
  ('CC(C)C[C@H](NC(=O)[C@@H](NC(=O)c1ccc2ccccc2c1)C(C)C)C(=O)N[C@H](C=O)C[C@@H]1CCCNC1=O', 'True');

[in] State whether the measured pIC50 reaches 6, counting equality as reaching it, for CC(C)C[C@H](NC(=O)[C@@H](NC(=O)c1ccc(Cl)cc1)C(C)C)C(=O)N[C@H](C=O)C[C@@H]1CCCNC1=O
[out] True

[in] State whether the measured pIC50 reaches 6, counting equality as reaching it, for CC[C@H](C)[C@H](NC(=O)/C=C/c1ccccc1)C(=O)N[C@@H](CC(C)C)C(=O)N[C@H](C=O)C[C@@H]1CCCNC1=O
[out] True

[in] State whether the measured pIC50 reaches 6, counting equality as reaching it, for CC(C)(C)[C@H](NC(=O)/C=C/c1ccccc1)C(=O)N[C@H](C=O)C[C@@H]1CCCNC1=O
[out] False

[in] State whether the measured pIC50 reaches 6, counting equality as reaching it, for COc1ccc(/C=C/C(=O)N[C@H](C(=O)N[C@@H](CC(C)C)C(=O)N[C@H](C=O)C[C@@H]2CCCNC2=O)C(C)C)cc1
[out] True
